Source: BigSolDB 2.1

Conditions: in n-pentanol, 308.1 K
REPORTED ENDPOINT: solubility (mole fraction)

{"columns": ["SUBSTANCE SMILES", "OBSERVED VALUE"],
 "data": [
  ["CC(=O)Oc1cc(C)c(OC(C)=O)c2ccccc12", 0.0122]
]}

* * *

Details: in methanol, 318.1 K

{"columns": ["SUBSTANCE SMILES", "solubility (mole fraction)"],
 "data": [
  ["CC(=O)Oc1cc(C)c(OC(C)=O)c2ccccc12", 0.0221]
]}

* * *

Conditions: in methyl acetate, 308.1 K
REPORTED ENDPOINT: solubility (mole fraction)

{"columns": ["SUBSTANCE SMILES", "OBSERVED VALUE"],
 "data": [
  ["CC(=O)Oc1cc(C)c(OC(C)=O)c2ccccc12", 0.159]
]}

* * *

Conditions: in ethanol, 283.1 K

{"columns": ["SUBSTANCE SMILES", "solubility (mole fraction)"],
 "data": [
  ["CC(=O)Oc1cc(C)c(OC(C)=O)c2ccccc12", 0.00323]
]}

* * *

Conditions: in n-butanol, 288.1 K
REPORTED ENDPOINT: solubility (mole fraction)

{"columns": ["SUBSTANCE SMILES", "OBSERVED VALUE"],
 "data": [
  ["CC(=O)Oc1cc(C)c(OC(C)=O)c2ccccc12", 0.00352]
]}

* * *

Settings: in n-pentanol, 313.1 K
REPORTED ENDPOINT: solubility (mole fraction)

{"columns": ["SUBSTANCE SMILES", "REPORTED ENDPOINT", "OBSERVED VALUE"],
 "data": [
  ["CC(=O)Oc1cc(C)c(OC(C)=O)c2ccccc12", "solubility (mole fraction)", 0.0164]
]}

* * *

Conditions: in n-butanol, 318.1 K
REPORTED ENDPOINT: solubility (mole fraction)

{"columns": ["SUBSTANCE SMILES", "REPORTED ENDPOINT", "OBSERVED VALUE"],
 "data": [
  ["CC(=O)Oc1cc(C)c(OC(C)=O)c2ccccc12", "solubility (mole fraction)", 0.0185]
]}

* * *

Conditions: in ethanol, 318.1 K

{"columns": ["SUBSTANCE SMILES", "solubility (mole fraction)"],
 "data": [
  ["CC(=O)Oc1cc(C)c(OC(C)=O)c2ccccc12", 0.0184]
]}

* * *

Conditions: in n-butanol, 323.1 K

{"columns": ["SUBSTANCE SMILES", "solubility (mole fraction)"],
 "data": [
  ["CC(=O)Oc1cc(C)c(OC(C)=O)c2ccccc12", 0.0253]
]}

* * *

Details: in cyclohexanol, 318.1 K

{"columns": ["SUBSTANCE SMILES", "solubility (mole fraction)"],
 "data": [
  ["CC(=O)Oc1cc(C)c(OC(C)=O)c2ccccc12", 0.0245]
]}

* * *

Details: in n-propyl acetate, 288.1 K

{"columns": ["SUBSTANCE SMILES", "solubility (mole fraction)"],
 "data": [
  ["CC(=O)Oc1cc(C)c(OC(C)=O)c2ccccc12", 0.0673]
]}

* * *

Settings: in isobutanol, 293.1 K
REPORTED ENDPOINT: solubility (mole fraction)

{"columns": ["SUBSTANCE SMILES", "OBSERVED VALUE"],
 "data": [
  ["CC(=O)Oc1cc(C)c(OC(C)=O)c2ccccc12", 0.00384]
]}
